Here, molecules appear alongside pIC50 reported for Cytochrome P450 2C19 (Homo sapiens, UniProt P33261) in the literature.
pIC50: −log10 of the molar value.

Some solved entries appear below for comparison.
INSERT INTO measurements (structure_as_smiles, endpoint_result) VALUES
  ('Cc1cccc(-c2[nH]c(NCc3cccc(F)c3F)nc2-c2ccc3[nH]ncc3c2)n1', 5.37),
  ('Cc1cccc(C)c1CNc1ncnc2c(C)c(C)[nH]c12', '< 5.00'),
  ('O=C(c1cc([C@H]2CCCN2c2cc(F)cc(F)c2)c2oc(N3CCOCC3)cc(=O)c2c1)N1CCOCC1', '< 4.52');

Q: Could you share which pIC50 value was measured for CCOC(=O)C1=C(CN2CCN3C(=O)N(CC(C)(C)C(=O)O)C[C@@H]3C2)NC(c2nccs2)=N[C@H]1c1cccc(F)c1C ?
A: < 4.30
